Entry source: patent US5270302A

Kindly supply the reported IC50 values for the records listed here.
# target or test system: Type-A CCK receptor (Cavia porcellus, UniProt Q63931)
# Construct: Cortical and pancreatic membranes were prepared as described; from tissue; host or cells: guinea pig pancreas membranes
# Sequence (Q63931 whole entry): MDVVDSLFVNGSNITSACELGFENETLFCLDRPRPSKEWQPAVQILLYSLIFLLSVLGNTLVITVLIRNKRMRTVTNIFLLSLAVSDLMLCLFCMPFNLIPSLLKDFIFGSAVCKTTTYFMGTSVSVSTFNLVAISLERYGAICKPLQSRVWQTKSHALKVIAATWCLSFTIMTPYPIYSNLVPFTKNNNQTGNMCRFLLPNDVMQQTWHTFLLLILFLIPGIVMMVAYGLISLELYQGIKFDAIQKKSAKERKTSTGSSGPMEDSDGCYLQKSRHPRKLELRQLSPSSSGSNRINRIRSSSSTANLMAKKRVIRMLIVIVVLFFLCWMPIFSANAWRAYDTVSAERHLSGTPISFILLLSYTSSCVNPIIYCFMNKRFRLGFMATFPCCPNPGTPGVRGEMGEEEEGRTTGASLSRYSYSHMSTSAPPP
# experiment: Radioligand binding of [125I]BH-CCK-8 in guinea pig pancreatic membrane preparations
*1 amine or outer side, *2 acyl side, *3 side chain or, on linkers, in order; H or OH if unused. Where a SMILES comes first, the peptide text is derived from it. Side-chain parts run from the residue outwards. [ ]: non-standard residue; d: D form. The star is where a group is joined. Propanoyl(3,3-Ph2) = O=C(CC(c1ccccc1)c1ccccc1)*; Desaminotyrosyl = O=C(CCc1ccc(O)cc1)*; Adoc = O=C(OC12CC3CC(CC(C3)C1)C2)*; NMeF = CN[C@@H](Cc1ccccc1)C(=O)O; NH(2-Me-phenyl) = Cc1ccccc1N*; Boc = CC(C)(C)OC(=O)*; CO = O=C([*:1])[*:2]; X19 = Brc1ccccc1N*
One number for each entry, in nM.

Below: 3 molecules and their reported IC50.
INSERT INTO measurements (molecule, recorded_value) VALUES
  ('Cc1ccccc1NC(=O)NCCCC[C@H](NC(=O)[C@H](Cc1c[nH]c2ccccc12)NC(=O)OC12CC3CC(CC(C3)C1)C2)C(=O)N[C@@H](CC(=O)O)C(=O)N(C)[C@@H](Cc1ccccc1)C(N)=O [Example 75] (Adoc-WK([CO-NH(2-Me-phenyl)])D[NMeF]-NH2)', 17),
  ('CC(C)(C)OC(=O)N[C@@H](Cc1c[nH]c2ccccc12)C(=O)N[C@@H](CCCCNC(=O)CCc1ccc(O)cc1)C(=O)N[C@@H](CC(=O)O)C(=O)N[C@@H](Cc1ccccc1)C(N)=O [Example 1] (Boc-WK(Desaminotyrosyl)DF-NH2)', 124),
  ('CC(C)(C)OC(=O)N[C@@H](Cc1c[nH]c2ccccc12)C(=O)N[C@@H](CCCCNC(=O)Nc1ccccc1Br)C(=O)N[C@@H](CC(=O)O)C(=O)N[C@@H](Cc1ccccc1)C(N)=O [Example 36] (Boc-WK([CO-X19])DF-NH2)', 7);

Let us move to another entry and its IC50.
Problem: Form field: IC50 recorded for Cc1ccccc1NC(=O)NCCCC[C@H](NC(=O)[C@H](Cc1c[nH]c2ccccc12)NC(=O)CC(c1ccccc1)c1ccccc1)C(=O)N[C@@H](CC(=O)O)C(=O)N(C)[C@@H](Cc1ccccc1)C(N)=O [Example 92] ({Propanoyl(3,3-Ph2)}-WK([CO-NH(2-Me-phenyl)])D[NMeF]-NH2) with Type-A CCK receptor (Cavia porcellus, UniProt Q63931) (enter value)
Solution: 5.6

====

Hi there, I'd appreciate the recorded IC50 for every entry that follows.
# target or test system: Type-B CCK receptor (Cavia porcellus, UniProt H0VZC5)
# Construct: Cortical and pancreatic membranes were prepared as described; from tissue; host or cells: guinea pig cerebral cortex membranes
# Sequence (H0VZC5 1-426): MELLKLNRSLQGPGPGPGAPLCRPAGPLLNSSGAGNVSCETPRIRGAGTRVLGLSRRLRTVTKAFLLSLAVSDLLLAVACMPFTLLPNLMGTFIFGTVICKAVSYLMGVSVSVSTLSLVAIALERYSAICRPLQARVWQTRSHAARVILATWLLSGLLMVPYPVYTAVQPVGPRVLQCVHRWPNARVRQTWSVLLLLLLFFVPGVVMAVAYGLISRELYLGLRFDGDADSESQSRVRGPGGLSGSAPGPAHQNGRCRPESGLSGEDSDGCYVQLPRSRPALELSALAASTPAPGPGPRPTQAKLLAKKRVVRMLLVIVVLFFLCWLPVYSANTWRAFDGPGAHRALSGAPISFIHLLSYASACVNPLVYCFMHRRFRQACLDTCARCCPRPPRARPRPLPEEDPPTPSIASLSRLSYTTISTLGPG
# experiment: Radioligand binding of [125I]BH-CCK-8 in guinea pig cerebral cortical membrane preparations
# test conditions: guinea pig cortical membranes, 30° C., 150 minutes; read-out: IC50 (nM) 125I-BH-CCK-8 Type-B receptor
*1 amine or outer side, *2 acyl side, *3 side chain or, on linkers, in order; H or OH if unused. Where a SMILES comes first, the peptide text is derived from it. Side-chain parts run from the residue outwards. [ ]: non-standard residue; d: D form. The star is where a group is joined. Acryloyl(3-(pyridin-3-yl)) = O=C(C=Cc1cccnc1)*; 2Naphthoyl(6-OH) = O=C(c1ccc2cc(O)ccc2c1)*; 1Nal = N[C@@H](Cc1cccc2ccccc12)C(=O)O; Desaminotyrosyl = O=C(CCc1ccc(O)cc1)*; NMeF = CN[C@@H](Cc1ccccc1)C(=O)O; NMeD = CN[C@@H](CC(=O)O)C(=O)O; 3Abz = Nc1cccc(C(=O)O)c1; X17 = O=C(C=Cc1ccccc1O)*; X26 = Clc1cccc(Cl)c1N*; Boc = CC(C)(C)OC(=O)*; CO = O=C([*:1])[*:2]; NHtBu = CC(C)(C)N*
Give bare numbers, in nM.

Please give IC50 for each item listed below.
1. CN(C(=O)[C@H](CCCCNC(=O)C=Cc1cccnc1)NC(=O)[C@H](Cc1c[nH]c2ccccc12)NC(=O)OC(C)(C)C)[C@@H](CC(=O)O)C(=O)N[C@@H](Cc1ccccc1)C(N)=O [Example 67] (Boc-WK(Acryloyl(3-(pyridin-3-yl)))[NMeD]F-NH2)
2. CN(C(=O)[C@H](CC(=O)O)NC(=O)[C@H](CCCCNC(=O)c1ccc2cc(O)ccc2c1)NC(=O)[C@H](Cc1c[nH]c2ccccc12)NC(=O)OC(C)(C)C)[C@@H](Cc1ccccc1)C(N)=O [Example 19] (Boc-WK(2Naphthoyl(6-OH))D[NMeF]-NH2)
3. CC(C)(C)OC(=O)N[C@@H](Cc1c[nH]c2ccccc12)C(=O)N[C@@H](CCCCNC(=O)Nc1c(Cl)cccc1Cl)C(=O)N[C@@H](CC(=O)O)C(=O)N[C@@H](Cc1ccccc1)C(N)=O [Example 47] (Boc-WK([CO-X26])DF-NH2)
4. Cc1ccccc1NC(=O)NCCCC[C@H](NC(=O)CCc1c[nH]c2ccccc12)C(=O)N(C)[C@@H](CC(=O)O)C(=O)N[C@@H](Cc1ccccc1)C(N)=O
5. COC(=O)c1cccc(NC(=O)NCCCC[C@H](NC(=O)[C@H](Cc2c[nH]c3ccccc23)NC(=O)OC(C)(C)C)C(=O)N[C@@H](CC(=O)O)C(=O)N[C@@H](Cc2ccccc2)C(N)=O)c1 [Example 46] (Boc-WK([CO-3Abz-OMe])DF-NH2)
6. CC(C)(C)OC(=O)N[C@@H](Cc1c[nH]c2ccccc12)C(=O)N[C@@H](CCCCNC(=O)C=Cc1ccccc1O)C(=O)N[C@@H](CC(=O)O)C(=O)N[C@@H](Cc1ccccc1)C(N)=O [Example 22] (Boc-WK(X17)DF-NH2)
7. CC(C)(C)NC(=O)NCCCC[C@H](NC(=O)[C@H](Cc1c[nH]c2ccccc12)NC(=O)OC(C)(C)C)C(=O)N[C@@H](CC(=O)O)C(=O)N[C@@H](Cc1ccccc1)C(N)=O [Example 32] (Boc-WK([CO-NHtBu])DF-NH2)
8. CC(C)(C)OC(=O)N[C@@H](Cc1c[nH]c2ccccc12)C(=O)N[C@@H](CCCCNC(=O)CCc1ccc(O)cc1)C(=O)N[C@@H](CC(=O)O)C(=O)N[C@@H](Cc1cccc2ccccc12)C(N)=O [Example 21] (Boc-WK(Desaminotyrosyl)D[1Nal]-NH2)

Solution:
1. 8300
2. 730
3. 7000
4. 10000
5. 1400
6. 200
7. 5600
8. 1200

Each compound below has a recorded value; state its IC50.
1. Cc1ccccc1NC(=O)NCCCC[C@H](NC(=O)C(C#N)Cc1c[nH]c2ccccc12)C(=O)N[C@@H](CC(=O)O)C(=O)N[C@@H](Cc1ccccc1)C(N)=O (stereo partly drawn)
2. Cc1ccccc1NC(=O)NCCCC[C@H](NC(=O)C(F)Cc1c[nH]c2ccccc12)C(=O)N[C@@H](CC(=O)O)C(=O)N[C@@H](Cc1ccccc1)C(N)=O (stereo partly drawn)

Solution:
1: 640; 2: 4500

====

# target or test system: Type-B CCK receptor (Cavia porcellus, UniProt H0VZC5)
# Construct: Cortical and pancreatic membranes were prepared as described; from tissue; host or cells: guinea pig cerebral cortex membranes
# experiment: Radioligand binding of [125I]BH-CCK-8 in guinea pig cerebral cortical membrane preparations
# test conditions: guinea pig cortical membranes, 30° C., 150 minutes; read-out: IC50 (nM) 125I-BH-CCK-8 Type-B receptor
*1 amine or outer side, *2 acyl side, *3 side chain or, on linkers, in order; H or OH if unused. Where a SMILES comes first, the peptide text is derived from it. Side-chain parts run from the residue outwards. [ ]: non-standard residue; d: D form. The star is where a group is joined. NMeD = CN[C@@H](CC(=O)O)C(=O)O; Boc = CC(C)(C)OC(=O)*; X3 = O=C(C=Cc1cccs1)*; CO = O=C([*:1])[*:2]; NHPh = c1ccc(N*)cc1
endpoint: IC50 (nM)
Give bare numbers, in nM.

Here's what some known entries look like.
INSERT INTO results (compound, target_or_test_system, units_text, recorded_value) VALUES
  ('CN(C(=O)[C@H](CCCCNC(=O)C=Cc1cccs1)NC(=O)[C@H](Cc1c[nH]c2ccccc12)NC(=O)OC(C)(C)C)[C@@H](CC(=O)O)C(=O)N[C@@H](Cc1ccccc1)C(N)=O [Example 66] (Boc-WK(X3)[NMeD]F-NH2)', 'Type-B CCK receptor (Cavia porcellus, UniProt H0VZC5)', 'nM', 8100),
  ('Cc1ccccc1NC(=O)NCCCC[C@H](NC(=O)CCc1c[nH]c2ccccc12)C(=O)N(C)[C@@H](CC(=O)O)C(=O)N[C@@H](Cc1cccc2ccccc12)C(N)=O', 'Type-B CCK receptor (Cavia porcellus, UniProt H0VZC5)', 'nM', 6600),
  ('Cc1ccccc1NC(=O)NCCCC[C@H](NC(=O)C(F)Cc1c[nH]c2ccccc12)C(=O)N[C@@H](CC(=O)O)C(=O)N(C)[C@@H](Cc1ccccc1)C(N)=O (some centres unmarked)', 'Type-B CCK receptor (Cavia porcellus, UniProt H0VZC5)', 'nM', 10000),
  ('CC(C)(C)OC(=O)N[C@@H](Cc1c[nH]c2ccccc12)C(=O)N[C@@H](CCCCNC(=O)Nc1ccccc1)C(=O)N[C@@H](CC(=O)O)C(=O)N[C@@H](Cc1ccccc1)C(N)=O [Example 29] (Boc-WK([CO-NHPh])DF-NH2)', 'Type-B CCK receptor (Cavia porcellus, UniProt H0VZC5)', 'nM', 1100);

Turning now to a further record.
Problem: Dear colleague, I am looking for the recorded IC50 of the following compound: CCOC(=O)C(C)(Cc1c[nH]c2ccccc12)C(=O)N[C@@H](CCCCNC(=O)Nc1ccccc1C)C(=O)N[C@@H](CC(=O)O)C(=O)N(C)[C@@H](Cc1ccccc1)C(N)=O (some centres unmarked)
Solution: 1400
